Where do the numbers come from? From patent US6337402B2.

Experiment: Bisbenzotriazole solubility in adhesive GELVA 263
Type: physicochemical
Details: in GELVA 263 polyacrylate adhesive; approximate maximum concentration with no sign of crystallization after solvent evaporation; weight added to GELVA 263 as is
Where Solubility without Crystallization (%) equals or exceeds 2%, the correct label is Criterion met; where it does not, the label is Criterion not met.

Observe how each entry below is paired with its result.
>>> df
                                 mol_smiles     discrete_label
0  CC(C)(C)CC(C)(C)c1cc(Cc2cc(C(C)(C)C)cc(-n3nc4ccc(Sc5ccccc5)cc4n3)c2O)c(O)c(-n2nc3ccc(C(F)(F)F)cc3n2)c1      Criterion met
1  CC(C)(C)c1cc(Cc2cc(C(C)(C)C)cc(-n3nc4ccc(S(=O)(=O)c5ccccc5)cc4n3)c2O)c(O)c(-n2nc3ccc(S(=O)(=O)c4ccccc4)cc3n2)c1  Criterion not met
2  CC(C)(C)CC(C)(C)c1cc(Cc2cc(C(C)(C)C)cc(-n3nc4ccc(S(=O)(=O)c5ccccc5)cc4n3)c2O)c(O)c(-n2nc3ccc(C(F)(F)F)cc3n2)c1      Criterion met
3  CC(C)(C)CC(C)(C)c1cc(Cc2cc(C(C)(C)C)cc(-n3nc4ccc(Cl)cc4n3)c2O)c(O)c(-n2nc3ccc(C(F)(F)F)cc3n2)c1      Criterion met

Switching to the query record.
Qu. Does CC(C)(C)CC(C)(C)c1cc(Cc2cc(C(C)(C)CC(C)(C)C)cc(-n3nc4ccc(C(F)(F)F)cc4n3)c2O)c(O)c(-n2nc3ccc(C(F)(F)F)cc3n2)c1 have a reported Solubility without Crystallization (%) of at least 2%?
Ans. Criterion met

###

Provide the recorded Solubility without Crystallization (%) for the entries that follow.
Test: Bisbenzotriazole solubility in adhesive GELVA 263
Type: physicochemical
Conditions: in GELVA 263 polyacrylate adhesive; approximate maximum concentration with no sign of crystallization after solvent evaporation; weight added to GELVA 263 as is
One number for each entry, in %.

Answered examples (2):
>>> df
                                 mol_smiles  unit_info  quantitative_result
0  CC(C)(c1ccccc1)c1cc(-n2nc3ccccc3n2)c(O)c(C(C)(C)c2ccccc2)c1          %                  2.0
1  CC(C)(C)c1cc(-n2nc3ccc(Cl)cc3n2)c(O)c(C(C)(C)C)c1          %                  2.0

Moving on to the next compound.
Qu. Form field: reported Solubility without Crystallization (%) of CC(C)(C)CC(C)(C)c1cc(Cc2cc(C(C)(C)CC(C)(C)C)cc(-n3nc4ccc(C(F)(F)F)cc4n3)c2O)c(O)c(-n2nc3ccccc3n2)c1
Ans. 2.0
